Target: CCR4 (Homo sapiens, UniProt P51679)
Construct: host or cells: CHO-K1
Sequence (P51679 1-360): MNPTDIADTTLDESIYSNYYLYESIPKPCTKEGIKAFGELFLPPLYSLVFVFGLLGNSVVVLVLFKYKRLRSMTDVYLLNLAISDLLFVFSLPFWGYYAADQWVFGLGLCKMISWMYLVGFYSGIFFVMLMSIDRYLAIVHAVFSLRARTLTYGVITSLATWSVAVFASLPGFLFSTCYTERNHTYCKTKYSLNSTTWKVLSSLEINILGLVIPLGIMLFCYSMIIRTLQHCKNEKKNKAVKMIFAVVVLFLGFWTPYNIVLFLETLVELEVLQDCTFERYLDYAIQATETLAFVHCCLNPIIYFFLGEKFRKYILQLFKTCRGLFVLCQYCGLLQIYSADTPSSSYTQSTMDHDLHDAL
Test: PathHunter eXpress CCR4 CHO-K1 β-Arrestin GPCR Assay, agonist format
Type: cell-based
Conditions: high concentration, 0.008 uM
PROPERTY MEASURED: Raw Data

1. ACPLMSSVNCTAGCA [24-13-00-N001, bicyclic peptide ligand, TBMB scaffold, from CCR4 cell-based selection]: 12612
2. ACLNGCRNTNSQCA [24-11-00-N001, bicyclic peptide ligand, TATA scaffold, from CCR4 cell-based selection]: 10183
3. ACLSCARHGNQCA [24-12-00-N001, bicyclic peptide ligand, TATA scaffold, from CCR4 cell-based selection]: 11106
4. ACQLTCLTPARQPGCA [24-14-00-N001, bicyclic peptide ligand, TATA scaffold, from CCR4 cell-based selection]: 12385

====

Target: CCR4 (Homo sapiens, UniProt P51679)
Construct: host or cells: CHO-K1
Sequence (P51679 1-360): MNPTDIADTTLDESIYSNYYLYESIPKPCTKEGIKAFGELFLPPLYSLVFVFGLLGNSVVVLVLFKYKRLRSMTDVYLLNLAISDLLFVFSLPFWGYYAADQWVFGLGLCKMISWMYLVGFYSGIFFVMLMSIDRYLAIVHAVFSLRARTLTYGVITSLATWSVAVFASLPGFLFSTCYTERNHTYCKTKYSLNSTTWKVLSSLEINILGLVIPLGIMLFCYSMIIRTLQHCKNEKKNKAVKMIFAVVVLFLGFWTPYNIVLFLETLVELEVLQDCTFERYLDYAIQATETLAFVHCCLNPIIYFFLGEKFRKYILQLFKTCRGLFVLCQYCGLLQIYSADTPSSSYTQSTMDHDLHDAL
Test: PathHunter eXpress CCR4 CHO-K1 β-Arrestin GPCR Assay, agonist format
Type: cell-based
Conditions: 1.5 nM
Strictly below 30000 in Raw Data: t. Otherwise: f.

1. ACRAVHSLRCLTTCA [24-17-00-N001, bicyclic peptide ligand, TATA scaffold, from CCR4 cell-based selection]: t
2. ACLNGCRNTNSQCA [24-11-00-N001, bicyclic peptide ligand, TATA scaffold, from CCR4 cell-based selection]: t
3. ACLSCARHGNQCA [24-12-00-N001, bicyclic peptide ligand, TATA scaffold, from CCR4 cell-based selection]: f
4. ACPLMSSVNCTAGCA [24-13-00-N001, bicyclic peptide ligand, TBMB scaffold, from CCR4 cell-based selection]: f
5. ACQTLCNTAEDIRCA [24-16-00-N001, bicyclic peptide ligand, TBMB scaffold, from CCR4 cell-based selection]: t
